Entries and their pKi
- target_system: Rat SERT (Rattus norvegicus)
- Construct: A rat brain without cerebellum (Zivic Laboratories, Inc.—Pittsburgh, Pa.) was homogenized; tissue Zivic Laboratories, Inc; host or cells: rat brain without cerebellum, membranes
- Sequence (P31652 whole entry): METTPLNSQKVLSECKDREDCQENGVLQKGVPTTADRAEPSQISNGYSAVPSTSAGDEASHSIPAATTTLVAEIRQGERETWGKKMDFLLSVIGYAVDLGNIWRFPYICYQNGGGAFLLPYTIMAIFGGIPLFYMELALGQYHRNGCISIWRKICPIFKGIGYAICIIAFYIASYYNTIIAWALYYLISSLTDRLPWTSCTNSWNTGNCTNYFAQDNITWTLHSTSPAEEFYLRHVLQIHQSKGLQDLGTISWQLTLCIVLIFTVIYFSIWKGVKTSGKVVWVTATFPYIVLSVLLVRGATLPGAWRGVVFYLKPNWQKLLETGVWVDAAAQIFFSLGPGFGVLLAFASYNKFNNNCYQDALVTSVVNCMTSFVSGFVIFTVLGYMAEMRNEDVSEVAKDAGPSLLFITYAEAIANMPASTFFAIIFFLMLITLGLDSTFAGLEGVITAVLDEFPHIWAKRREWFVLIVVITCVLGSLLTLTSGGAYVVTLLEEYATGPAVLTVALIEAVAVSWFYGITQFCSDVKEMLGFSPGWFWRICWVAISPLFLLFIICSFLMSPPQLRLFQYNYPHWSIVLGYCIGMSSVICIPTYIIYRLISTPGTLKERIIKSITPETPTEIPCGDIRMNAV
- assay_details: Rat brain SERT binding ([3H]-citalopram displacement)
- measurement_conditions: rat brain membranes without cerebellum, 0.6 nM [3H]-citalopram, 60 min at 25° C.; read-out: Rat SERT Ki
- Procedure: The supernatant was removed and re-centrifuged at 15,000 rpm for 30 min. […] Membranes were incubated with 0.6 nM [^3H]-Citalopram plus/minus test compounds for 60 min at 25° C. and harvested by rapid filtration over GF/C glass fiber filters (pretreated with 0.3% polyethylenimine) followed by four washes with ice-cold buffer.
pKi: −log10 of the molar value.
reported_metric: pKi

{"compound": "COc1ccc(C2CN(C)Cc3cc(OCCCN4CCN(C(=O)C5CCC5)CC4)ccc32)cc1 (stereo not drawn)", "target_system": "Rat SERT (Rattus norvegicus)", "data_value": 7.82}
{"compound": "COc1ccc(C2CN(C)Cc3cc(OCCCNC(C4CC4)C4CC4)ccc32)cc1 (stereo not drawn)", "target_system": "Rat SERT (Rattus norvegicus)", "data_value": 8.05}
{"compound": "COc1ccc(C2CN(C)Cc3cc(OCCCN4CCN(C)CC4)ccc32)cc1 (stereo not drawn)", "target_system": "Rat SERT (Rattus norvegicus)", "data_value": 8.30}
{"compound": "CN1Cc2cc(OCCCN3CCC(F)CC3)ccc2C(c2cc(Cl)cc(Cl)c2)C1 (stereo not drawn)", "target_system": "Rat SERT (Rattus norvegicus)", "data_value": 7.38}
{"compound": "COc1ccc(C2CN(C)Cc3cc(OCCCN4CC(C(c5ccccc5)c5ccccc5)C4)ccc32)cc1 (stereo not drawn)", "target_system": "Rat SERT (Rattus norvegicus)", "data_value": 7.11}
{"compound": "CN1Cc2cc(OCCCN3CCCCC3)ccc2C(c2ccc(OC(F)(F)F)cc2)C1 (stereo not drawn)", "target_system": "Rat SERT (Rattus norvegicus)", "data_value": 7.52}
{"compound": "COc1cccc(C2CN(C)Cc3cc(OCCCN4CCC(F)CC4)ccc32)c1 (racemic) [Example 44]", "target_system": "Rat SERT (Rattus norvegicus)", "data_value": 8.40}
{"compound": "COc1ccc(C2CN(C)Cc3cc(OCCCN4CCC(F)CC4)ccc32)c(F)c1 (single isomer, unassigned) [Example 141]", "target_system": "Rat SERT (Rattus norvegicus)", "data_value": 8.52}
{"compound": "CN1Cc2cc(C#CCCN3CCCCC3)ccc2C(c2ccc(F)cc2)C1 (stereo not drawn)", "target_system": "Rat SERT (Rattus norvegicus)", "data_value": 7.05}
{"compound": "COc1ccc(C2CN(C)Cc3cc(OC[C@H]4CN(C5CC5)CCO4)ccc32)cc1 (single isomer, unassigned) [Example 261B]", "target_system": "Rat SERT (Rattus norvegicus)", "data_value": 7.77}
{"compound": "COc1cccc(C2CN(C)Cc3cc(OC4CCN(C5CCC5)CC4)ccc32)c1 (stereo not drawn)", "target_system": "Rat SERT (Rattus norvegicus)", "data_value": 7.70}
{"compound": "COc1ccc(C2CN(CCO)Cc3cc(OCCCN4CCCCC4)ccc32)cc1 (stereo not drawn)", "target_system": "Rat SERT (Rattus norvegicus)", "data_value": 7.80}
{"compound": "COc1ccc(C2CN(C)Cc3cc(OCCCN(C)C4CC4)ccc32)cc1 (stereo not drawn)", "target_system": "Rat SERT (Rattus norvegicus)", "data_value": 8.52}
{"compound": "COc1ccc(C2CN(C)Cc3cc(OCCCN4CCC(F)CC4)ccc32)c(F)c1 (single isomer, unassigned) [Example 140]", "target_system": "Rat SERT (Rattus norvegicus)", "data_value": 7.55}
{"compound": "COc1ccc(C2CN(C)Cc3cc(OCCCN4CCOCC4)c(C)cc32)cc1F (stereo not drawn)", "target_system": "Rat SERT (Rattus norvegicus)", "data_value": 7.60}
{"compound": "COc1ccc(C2CN(C)Cc3cc(OC[C@H]4CN(C5CC5)CCO4)ccc32)cc1 (single isomer, unassigned) [Example 261A]", "target_system": "Rat SERT (Rattus norvegicus)", "data_value": 7.49}
{"compound": "CSc1ccc(C2CN(C)Cc3cc(OCCCN4CCC(F)CC4)ccc32)cn1 (stereo not drawn)", "target_system": "Rat SERT (Rattus norvegicus)", "data_value": 8.52}
{"compound": "COc1ccc(C2CN(C)Cc3cc(OCCCN(C4CC4)C4CCN(C)CC4)ccc32)cc1 (stereo not drawn)", "target_system": "Rat SERT (Rattus norvegicus)", "data_value": 7.49}
{"compound": "CSc1ccc(C2CN(C)Cc3cc(OCCCN4CCC(F)CC4)ccc32)cc1 (stereo not drawn)", "target_system": "Rat SERT (Rattus norvegicus)", "data_value": 8.52}
{"compound": "CCCN1CCC(COc2ccc3c(c2)CN(C)CC3c2ccc(SC)cc2)CC1 (stereo not drawn)", "target_system": "Rat SERT (Rattus norvegicus)", "data_value": 8.00}
{"compound": "CCCN1CCC(COc2ccc3c(c2)CN(C)CC3c2ccc(OC)c(F)c2)CC1 (stereo not drawn)", "target_system": "Rat SERT (Rattus norvegicus)", "data_value": 8.30}
{"compound": "CN1Cc2cc(OCCCN3CCC(F)CC3)ccc2C(c2ccc(OC(F)F)cc2)C1 (stereo not drawn)", "target_system": "Rat SERT (Rattus norvegicus)", "data_value": 8.52}
{"compound": "COc1ccc(C2CN(C)Cc3cc(OC[C@@H]4CN(C5CC5)CCO4)ccc32)cc1 (single isomer, unassigned) [Example 260B]", "target_system": "Rat SERT (Rattus norvegicus)", "data_value": 7.59}
{"compound": "CSc1ccc(C2CN(C)Cc3cc(OCC4CCN(C5CCC5)CC4)ccc32)cc1 (stereo not drawn)", "target_system": "Rat SERT (Rattus norvegicus)", "data_value": 8.30}
{"compound": "COc1ccc(C2CN(C)Cc3cc(OCCCN4CCCC(F)(F)C4)ccc32)cc1 (single isomer, unassigned) [Example 29B]", "target_system": "Rat SERT (Rattus norvegicus)", "data_value": 8.10}
{"compound": "CN1Cc2cc(OCCCN3CCOCC3)ccc2C(c2ccc(SC(F)(F)F)cc2)C1 (stereo not drawn)", "target_system": "Rat SERT (Rattus norvegicus)", "data_value": 7.44}
{"compound": "COc1ccc(C2CN(C)Cc3cc(OCCCNC4CCOCC4)ccc32)cc1 (stereo not drawn)", "target_system": "Rat SERT (Rattus norvegicus)", "data_value": 8.30}
{"compound": "COc1ccc(C2CN(CCF)Cc3cc(OCCCN4CCCCC4)ccc32)cc1 (stereo not drawn)", "target_system": "Rat SERT (Rattus norvegicus)", "data_value": 7.82}
{"compound": "CN1Cc2cc(OCCCN3CCCCC3)ccc2C(c2ccc(C(F)(F)F)cc2)C1 (stereo not drawn)", "target_system": "Rat SERT (Rattus norvegicus)", "data_value": 7.85}
{"compound": "COc1ccc(C2CN(C)Cc3cc(OC[C@H]4CNCCO4)ccc32)cc1 (stereo partly drawn)", "target_system": "Rat SERT (Rattus norvegicus)", "data_value": 8.70}
{"compound": "CCN1Cc2cc(OCCCN3CCC(F)CC3)ccc2C(c2ccc(OC)cc2)C1 (stereo not drawn)", "target_system": "Rat SERT (Rattus norvegicus)", "data_value": 7.92}
{"compound": "COc1ccc(C2CN(C3CC3)Cc3cc(OCCCN4CCCCC4)ccc32)cc1 (stereo not drawn)", "target_system": "Rat SERT (Rattus norvegicus)", "data_value": 7.08}
{"compound": "COc1ccc(C2CN(C)Cc3cc(OCC4CCNCC4)ccc32)cc1 (stereo not drawn)", "target_system": "Rat SERT (Rattus norvegicus)", "data_value": 8.70}

Data origin, for the record: patent US20060194837A1
